# systemTested: recombinant human NaV1.8 stably transfected HEK cells (Homo sapiens, UniProt Q9Y5Y9)
# Construct: expressed in transfected cells; host or cells: HEK cells, stably transfected
# Sequence (Q9Y5Y9 whole entry): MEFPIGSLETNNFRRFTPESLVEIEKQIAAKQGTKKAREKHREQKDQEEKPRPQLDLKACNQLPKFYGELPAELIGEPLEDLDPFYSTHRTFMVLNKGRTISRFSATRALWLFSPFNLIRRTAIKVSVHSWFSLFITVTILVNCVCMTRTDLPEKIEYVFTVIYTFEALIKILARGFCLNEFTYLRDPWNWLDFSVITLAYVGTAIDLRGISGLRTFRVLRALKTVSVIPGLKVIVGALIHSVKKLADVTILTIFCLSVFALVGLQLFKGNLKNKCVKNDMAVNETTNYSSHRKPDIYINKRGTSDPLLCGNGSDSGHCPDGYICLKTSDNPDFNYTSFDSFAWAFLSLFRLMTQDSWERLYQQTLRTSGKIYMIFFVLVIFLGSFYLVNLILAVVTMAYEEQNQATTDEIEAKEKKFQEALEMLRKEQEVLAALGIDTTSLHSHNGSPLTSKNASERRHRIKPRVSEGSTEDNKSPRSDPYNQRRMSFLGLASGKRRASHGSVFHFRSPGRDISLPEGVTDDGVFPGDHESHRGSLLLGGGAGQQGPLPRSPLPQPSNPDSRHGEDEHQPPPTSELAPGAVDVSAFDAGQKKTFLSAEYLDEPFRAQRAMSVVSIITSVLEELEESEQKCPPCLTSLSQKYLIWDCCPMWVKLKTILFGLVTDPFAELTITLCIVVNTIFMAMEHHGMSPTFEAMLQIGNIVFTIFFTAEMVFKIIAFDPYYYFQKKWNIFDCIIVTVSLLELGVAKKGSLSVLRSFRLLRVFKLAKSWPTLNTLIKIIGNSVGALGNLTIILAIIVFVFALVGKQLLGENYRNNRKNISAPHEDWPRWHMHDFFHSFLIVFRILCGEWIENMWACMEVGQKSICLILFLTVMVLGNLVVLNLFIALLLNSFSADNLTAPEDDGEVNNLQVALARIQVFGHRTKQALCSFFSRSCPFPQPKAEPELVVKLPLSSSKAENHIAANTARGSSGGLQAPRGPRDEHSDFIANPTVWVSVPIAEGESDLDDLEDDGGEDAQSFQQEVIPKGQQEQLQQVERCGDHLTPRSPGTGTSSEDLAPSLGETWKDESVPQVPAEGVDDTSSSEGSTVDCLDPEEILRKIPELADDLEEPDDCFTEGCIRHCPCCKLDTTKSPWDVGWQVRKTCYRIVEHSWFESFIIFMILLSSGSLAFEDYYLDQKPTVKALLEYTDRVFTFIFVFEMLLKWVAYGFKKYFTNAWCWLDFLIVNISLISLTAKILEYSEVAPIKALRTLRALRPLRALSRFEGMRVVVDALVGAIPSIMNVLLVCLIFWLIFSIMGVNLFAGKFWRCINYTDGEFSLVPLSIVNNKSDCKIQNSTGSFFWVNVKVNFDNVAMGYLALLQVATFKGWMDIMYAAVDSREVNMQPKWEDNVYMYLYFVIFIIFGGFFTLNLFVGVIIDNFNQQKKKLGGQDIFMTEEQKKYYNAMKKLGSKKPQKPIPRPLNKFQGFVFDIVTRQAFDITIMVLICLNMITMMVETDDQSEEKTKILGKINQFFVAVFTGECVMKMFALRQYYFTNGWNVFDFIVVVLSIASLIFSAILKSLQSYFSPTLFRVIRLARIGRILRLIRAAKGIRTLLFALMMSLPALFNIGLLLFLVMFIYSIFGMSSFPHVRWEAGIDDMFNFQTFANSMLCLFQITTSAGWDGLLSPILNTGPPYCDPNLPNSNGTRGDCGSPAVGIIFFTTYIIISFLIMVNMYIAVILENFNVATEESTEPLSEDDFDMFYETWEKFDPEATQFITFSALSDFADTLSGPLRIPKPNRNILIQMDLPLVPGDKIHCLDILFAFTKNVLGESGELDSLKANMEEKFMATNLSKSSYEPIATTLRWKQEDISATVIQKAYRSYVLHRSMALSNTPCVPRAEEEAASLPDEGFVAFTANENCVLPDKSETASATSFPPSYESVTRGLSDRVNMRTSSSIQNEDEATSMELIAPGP
# test: Compound profiling on NaV1.8, human NaV1.8 cell line, SyncroPatch384PE automated patch clamp assay (Example 102, first set of compounds, Table 16)
# Type: cell-based
# measurementSetup: inactivated state block (P2 measurement), human NaV1.8 HEK cells, Table 16 (first set of compounds), read-out: P2IC50
# maps each entry to its IC50

Known IC50 results, listed for orientation:
{"molecule": "Cc1nc(C#N)ccc1Oc1ncc(C(F)(F)F)cc1C(=O)Nc1cccc(C(N)=O)c1 [Compound 1700]", "IC50": "200 to 500 nM"}
{"molecule": "Cc1cc(C#N)ccc1Oc1nnc(C(F)(F)F)c(C)c1C(=O)Nc1cccc([S@@](C)(=N)=O)c1 [Compound 1525]", "IC50": "≤ 20 nM"}
{"molecule": "CS(=O)(=O)c1cccc(NC(=O)c2cc(C(F)(F)F)cnc2OCC2CCC2(F)F)c1 (stereo not shown) [Compound 1605]", "IC50": "200 to 500 nM"}
{"molecule": "COc1cc(C#N)ccc1Oc1nc(C(F)(F)F)nc(C)c1C(=O)Nc1ccc(C(N)=O)cc1 [Compound 1744]", "IC50": "40 to 200 nM"}
{"molecule": "Cc1cc(F)ccc1Oc1nnc(C(F)(F)F)c(C2CC2)c1C(=O)Nc1cccc([S@@](C)(=N)=O)c1 [Compound 1519]", "IC50": "20 to 40 nM"}
{"molecule": "Cc1c(C(F)(F)F)nnc(Oc2ccc(OC(C)C)c(F)c2F)c1C(=O)Nc1cccc(S(C)(=O)=O)c1 [Compound 1424]", "IC50": "≤ 20 nM"}

Which IC50 is reported for this molecule? N#CC1CC(Oc2ncc(C(F)(F)F)cc2C(=O)Nc2ccc(C(N)=O)cc2)C1 (mixture of isomers) [Compound 1671]
200 to 500 nM

Entry NC(=O)c1ccc(NC(=O)c2cc(C(F)(F)F)cnc2OC2CC(C(F)(F)F)C2)cc1 (mixture of isomers) [Compound 1670] please
200 to 500 nM

Entry CS(=O)(=O)c1cccc(NC(=O)c2cc(C(F)(F)F)cnc2OCCC(F)(F)F)c1 [Compound 1604] please
200 to 500 nM

Entry Cc1cc(Br)ccc1Oc1nnc(C(F)(F)F)c(C)c1C(=O)Nc1ccc(C(N)=O)cc1 [Compound 1402] please
20 to 40 nM

Entry Cc1nc(C#N)ccc1Oc1ncc(C(F)(F)F)cc1C(=O)Nc1cccc(S(C)(=N)=O)c1 (stereo not shown) [Compound 1701] please
20 to 40 nM

Entry Cc1c(C(F)(F)F)nnc(Oc2c(F)cc(OC(F)(F)F)cc2F)c1C(=O)Nc1cccc(S(C)(=O)=O)c1 [Compound 1423] please
200 to 500 nM

Entry CC(C)Oc1ccc(Oc2ncc(C(F)(F)F)cc2C(=O)Nc2cccc(S(C)(=N)=O)c2)cc1F (stereo not shown) [Compound 1647] please
≤ 20 nM

Entry Cc1cc(C(F)(F)F)ccc1Oc1ncc(C(F)(F)F)cc1C(=O)Nc1cccc(S(C)(=O)=O)c1 [Compound 1595] please
≤ 20 nM

Entry CS(=O)(=O)c1cccc(NC(=O)c2cc(C(F)(F)F)cnc2OCC2CC2(F)F)c1 (stereo not shown) [Compound 1659] please
40 to 200 nM

Entry CS(=O)(=O)c1cccc(NC(=O)c2cc(C(F)(F)F)cnc2OC2CCC(=O)NC2)c1 (stereo not shown) [Compound 1606] please
200 to 500 nM

Entry Cc1c(C(F)(F)F)nnc(Oc2ccc(OC(F)F)c(F)c2F)c1C(=O)Nc1cccc(S(C)(=O)=O)c1 [Compound 1422] please
≤ 20 nM

Entry COc1nc(Br)ccc1Oc1ncc(C(F)(F)F)cc1C(=O)Nc1cccc(S(C)(=O)=O)c1 [Compound 1603] please
≤ 20 nM

Entry COc1cc(F)c(Oc2ncc(C(F)(F)F)cc2C(=O)Nc2cccc(C(N)=O)c2)cc1F [Compound 1638] please
200 to 500 nM
